Form field: composite z-score (one value per entry).
target: Left-right determination factor 2 (Homo sapiens); assay: LEFTY2 binders on small-molecule microarrays, primary screen, biochemical, small-molecule microarray, 635 nm fluorescence scan (AID 1110); conditions: LEFTY2 binding, higher = more signal

Worked examples, 5 molecules total:
molecule	composite z-score
N#Cc1ccc(NN2C(C(O)c3ccc([N+](=O)[O-])cc3)C=CC3C(=O)N(c4ccccc4)C(=O)C32)cc1 (stereo unspecified)	0.0872
CCCCCN1CC=CC23O[C@@H]4/C=C\CCCOC(=O)C4[C@H]2C(=O)N(CCCCCCO)[C@@H]3C1=O (stereo partly specified)	-0.545
C=C(C(=O)CC[C@H](OC(C)=O)c1ccc(OCCO)cc1)C(C)C	1.03
CCC(CC)C(O)C1C=CC2C(=O)N(c3ccccc3)C(=O)C2N1Nc1ccc(C#N)cc1 (stereo unspecified)	0.0717
CC(C)(C)OC(=O)CC[C@@]1(C(=O)NCCN2CCOCC2)N=C(c2ccc(OCCCO)cc2)O[C@@H]1c1ccccc1	0.356

Form: molecule = CO[C@H]1O[C@H](CO)[C@@H](OC(=O)Nc2ccc(Oc3ccccc3)cc2)[C@H](OC(=O)Nc2ccccc2)[C@H]1OC(=O)Nc1ccccc1 ; composite z-score = 0.62

Form: molecule = C=C[C@@H](COC(C)=O)N(Cc1ccccc1[N+](=O)[O-])S(=O)(=O)c1ccc(Br)cc1 ; composite z-score = 1.02

Form: molecule = CCCN1C(=O)[C@]2(COC(c3ccc(OCCCO)cc3)=N2)Cc2ccccc21 ; composite z-score = -0.196

Form: molecule = Cc1ccc([C@H]2C(C(=O)O)=C[C@@H](C)N2S(=O)(=O)c2ccc(C)cc2)cc1 ; composite z-score = -0.942

Form: molecule = CCOC(=O)C1=C[C@@H](CC)N(S(=O)(=O)c2ccc(C)cc2)[C@H]1c1ccccc1 ; composite z-score = 0.0917

Form: molecule = [N-]=[N+]=NCc1ccccc1[C@@H]1OC(c2ccc(OCCCO)cc2)=N[C@]1(Cc1ccccc1)C(=O)N1CCCCC1 ; composite z-score = 0.232
